Values were extracted from ChEMBL document CHEMBL5620354.

System: 4T1
assay_explanation: Cytotoxicity against mouse 4T1 cells assessed as inhibition of cell growth incubated for 48 hrs by MTT assay
Assay type: functional, cell-based
measurement_parameters: 4T1, 48 h, read-out: IC50
Rule for this label: Met means IC50 is less than 1000 nM; Not met means IC50 is at least 1000 nM.

> print(dat)
                                   molecule    group
1  [2H]C([2H])([2H])OC(=O)c1cc[n+]2[se]c(C3(O)CCCCC3)c(Br)c2c1.[Cl-]  Not met
2  NC(=O)c1cc[n+]2[se]c(C3(O)CCC(F)(F)CC3)c(Br)c2c1  Not met
3  COC(=O)c1cc(C)[n+]2[se]c(C3(O)CCCCC3)c(Br)c2c1      Met
4  COC(=O)c1cc[n+]2[se]c(C3([O-])CCC3)c(Br)c2c1  Not met
5  COC(=O)c1ccc2c(Br)c(C3(O)CCCCC3)[se][n+]2c1      Met

Quick check: IC50 of "COC(=O)c1cc[n+]2[se]c(C3(O)CCCCC3)c(Br)c2c1.[Cl-]" under 1000 nM?
Met

IC50 strictly < 1000 nM for this molecule? NC(=O)c1cc[n+]2[se]c(C3(O)C4CC5CC(C4)CC3C5)c(Br)c2c1 (stereo not drawn)
Met

Input "O=C(O)c1cc[n+]2[se]c(C3(O)CCCCC3)c(Br)c2c1" ; condition: IC50 strictly below 1000 nM. Does it hold?
Not met

Just wondering, is IC50 of "COC(=O)c1cc2c(Br)c(C3(O)CCCCC3)[se][n+]2cc1F" below 1000 nM?
Not met

Is it true that IC50 reported for "COC(=O)c1cc[n+]2[se]c(C3(O)CCC(F)(F)CC3)c(Br)c2c1" is less than 1000 nM?
Not met

Determine whether this molecule shows IC50 lower than 1000 nM (ties excluded): "COC(=O)c1cc[n+]2[se]c(C3([O-])CCCC3)c(Br)c2c1"
Not met

Does the reported IC50 of the following molecule sit strictly below 1000 nM? CCCCCCCCCCCCCC(C)(O)c1[se][n+]2ccc(C(N)=O)cc2c1Br (stereo not drawn)
Not met

Bench note: check whether "NC(=O)c1cc[n+]2[se]c(C3(O)CCCCC3)c(Br)c2c1" shows IC50 below 1000 nM
Not met

###

assay_explanation: Binding affinity to Sprague-Dawley rat liver Cardiolipin incubated for 10 mins by microplate reader analysis
Type: tissue-based
measurement_kind: pEC50
# log scale: pEC50 equals minus log10 of the concentration in mol/L

Item: "COC(=O)c1cc[n+]2[se]c(C3(O)CCCCC3)c(Br)c2c1.[Cl-]" | pEC50: 2.46

###

Organism: Oryctolagus cuniculus
assay_explanation: Inhibition of rabbit LDH at 1 uM relative to control
inhibition listing for selected compounds.
Please respond with the number in % and leave the unit unwritten.

Known inhibition results, listed for orientation:
> print(dat)
                                   compound  measurement.kind  test.result
1  COC(=O)c1cc[n+]2[se]c(C3(O)CCC(F)(F)CC3)c(Br)c2c1        inhibition            2
2  COC(=O)c1cc2c(Br)c(C3(O)CCCCC3)[se][n+]2cc1F        inhibition            7
3  NC(=O)c1cc[n+]2[se]c(C3(O)CCC(F)(F)CC3)c(Br)c2c1        inhibition           13
4  COC(=O)c1ccc2c(Br)c(C3(O)CCCCC3)[se][n+]2c1        inhibition           10
5  COC(=O)c1cc[n+]2[se]c(C3([O-])CCCC3)c(Br)c2c1        inhibition            6
6  COC(=O)c1cc[n+]2[se]c(C3(O)CCCCC3)c(Br)c2c1.[Cl-]        inhibition           10

Continue with the next compound.
Record summary for CCCCCCCCCCCCCC(C)(O)c1[se][n+]2ccc(C(N)=O)cc2c1Br (configuration not stated) : reported inhibition = 9

###

test_system: Pyruvate kinase PKM (Homo sapiens)
Sequence (P14618 2-531 limits assumed): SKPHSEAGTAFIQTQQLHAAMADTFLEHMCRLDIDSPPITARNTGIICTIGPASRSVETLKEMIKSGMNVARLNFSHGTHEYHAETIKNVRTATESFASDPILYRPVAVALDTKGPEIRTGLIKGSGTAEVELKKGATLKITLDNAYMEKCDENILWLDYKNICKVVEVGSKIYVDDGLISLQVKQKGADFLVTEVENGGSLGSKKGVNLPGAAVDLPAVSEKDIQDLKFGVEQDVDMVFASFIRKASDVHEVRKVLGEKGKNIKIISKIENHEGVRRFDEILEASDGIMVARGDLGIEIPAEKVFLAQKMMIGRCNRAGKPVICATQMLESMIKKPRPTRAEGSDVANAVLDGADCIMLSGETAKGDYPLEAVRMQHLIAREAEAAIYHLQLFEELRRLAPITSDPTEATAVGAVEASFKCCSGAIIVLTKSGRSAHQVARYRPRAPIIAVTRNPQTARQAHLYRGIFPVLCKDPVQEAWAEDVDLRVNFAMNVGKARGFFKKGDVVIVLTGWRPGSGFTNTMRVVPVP
assay_explanation: Inhibition of PKM1 (unknown origin)
Design: concentration or dose not given beside the values
measurement_parameters: concentration not given here
Label condition not met if inhibition falls below 20%; label condition met in every other case.

Worked examples follow.
> print(dat)
                                   compound              group
1  NC(=O)c1cc[n+]2[se]c(C3(O)C4CC5CC(C4)CC3C5)c(Br)c2c1 (configuration not stated)      condition met
2  COC(=O)c1ccc2c(Br)c(C3(O)CCCCC3)[se][n+]2c1  condition not met
3  COC(=O)c1cc2c(Br)c(C3(O)CCCCC3)[se][n+]2cc1F      condition met
4  COC(=O)c1cc[n+]2[se]c(C3(O)CCC(F)(F)CC3)c(Br)c2c1  condition not met
5  COC(=O)c1cc(C)[n+]2[se]c(C3(O)CCCCC3)c(Br)c2c1  condition not met

Now look at this entry.
Textbook exercise: given the entry CCCCCCCCCCCCCC(C)(O)c1[se][n+]2ccc(C(N)=O)cc2c1Br (configuration not stated) , state whether its inhibition is greater than or equal to 20%.
condition met

###

assay_explanation: Cytotoxicity against rat H9c2 cells assessed as inhibition of cell growth incubated for 48 hrs by MTT assay
Type: toxicity, cell-based
measurement_kind: IC50 at 48 h (nM)
Please give a number only; it is taken to be in nM.

> print(dat)
                                   compound  measurement.kind  display.unit  test.result
1  [2H]C([2H])([2H])OC(=O)c1cc[n+]2[se]c(C3(O)CCCCC3)c(Br)c2c1.[Cl-]      IC50 at 48 h            nM          640
2  NC(=O)c1cc[n+]2[se]c(C3(O)CCCCC3)c(Br)c2c1      IC50 at 48 h            nM         1410
3  COC(=O)c1cc(C)[n+]2[se]c(C3(O)CCCCC3)c(Br)c2c1      IC50 at 48 h            nM          900
4  CCCCCCCCCCCCCC(C)(O)c1[se][n+]2ccc(C(N)=O)cc2c1Br (centres undefined)      IC50 at 48 h            nM         1910
5  O=C(O)c1ccc2c(Br)c(C3(O)CCCCC3)[se][n+]2c1      IC50 at 48 h            nM         3550

Recorded result, NC(=O)c1cc[n+]2[se]c(C3(O)C4CC5CC(C4)CC3C5)c(Br)c2c1 (centres undefined) , IC50 at 48 h: 910

IC50 at 48 h recorded for this compound, "COC(=O)c1ccc2c(Br)c(C3(O)CCCCC3)[se][n+]2c1" , is 890

Recorded result, "COC(=O)c1cc2c(Br)c(C3(O)CCCCC3)[se][n+]2cc1F" , IC50 at 48 h: 1680

Just so you know, measured IC50 at 48 h for "NC(=O)c1cccc2c(Br)c(C3(O)CCCCC3)[se][n+]12" came out at 2630

Lab book: IC50 at 48 h of "COC(=O)c1cc[n+]2[se]c(C3(O)CCC(F)(F)CC3)c(Br)c2c1" noted as 1060

Reported IC50 at 48 h for CCCCCCCCCCCCCC(C)(O)c1[se][n+]2ccc(C(=O)OC)cc2c1Br (centres undefined) was 3630

// recorded IC50 at 48 h for COC(=O)c1cc[n+]2[se]c(C3(O)C4CC5CC(C4)CC3C5)c(Br)c2c1 (centres undefined) : 4760

Query "COC(=O)c1cc[n+]2[se]c(C3([O-])CCC3)c(Br)c2c1" yields IC50 at 48 h of 2970

Input "COc1cccc2c1C(=O)c1c(O)c3c(c(O)c1C2=O)C[C@@](O)(C(=O)CO)C[C@@H]3O[C@H]1C[C@H](N)[C@H](O)[C@H](C)O1" . Output IC50 at 48 h: 3900

Record summary for "O=C(O)c1cc[n+]2[se]c(C3(O)CCCCC3)c(Br)c2c1" : reported IC50 at 48 h = 7820

IC50 at 48 h reading for "NC(=O)c1ccc2c(Br)c(C3(O)CCCCC3)[se][n+]2c1" : 1270

The compound listed as "COC(=O)c1cc[n+]2[se]c(C3([O-])CCCC3)c(Br)c2c1" shows IC50 at 48 h equal to 770

IC50 at 48 h recorded for this compound, "COC(=O)c1cc[n+]2[se]c(C3(O)CCCCC3)c(Br)c2c1.[Cl-]" , is 2460

The compound identified as "NC(=O)c1cc[n+]2[se]c(C3(O)CCC(F)(F)CC3)c(Br)c2c1" registered its IC50 at 48 h at 1410
